// provenance: patent US12162888B2

Molecular target: USP25 (USP25-His6, Boston Biochem E-546) (Homo sapiens, UniProt Q9UHP3)
Construct: His6 (C); purchased Boston Biochem E-546
Sequence (Q9UHP3 1-1055): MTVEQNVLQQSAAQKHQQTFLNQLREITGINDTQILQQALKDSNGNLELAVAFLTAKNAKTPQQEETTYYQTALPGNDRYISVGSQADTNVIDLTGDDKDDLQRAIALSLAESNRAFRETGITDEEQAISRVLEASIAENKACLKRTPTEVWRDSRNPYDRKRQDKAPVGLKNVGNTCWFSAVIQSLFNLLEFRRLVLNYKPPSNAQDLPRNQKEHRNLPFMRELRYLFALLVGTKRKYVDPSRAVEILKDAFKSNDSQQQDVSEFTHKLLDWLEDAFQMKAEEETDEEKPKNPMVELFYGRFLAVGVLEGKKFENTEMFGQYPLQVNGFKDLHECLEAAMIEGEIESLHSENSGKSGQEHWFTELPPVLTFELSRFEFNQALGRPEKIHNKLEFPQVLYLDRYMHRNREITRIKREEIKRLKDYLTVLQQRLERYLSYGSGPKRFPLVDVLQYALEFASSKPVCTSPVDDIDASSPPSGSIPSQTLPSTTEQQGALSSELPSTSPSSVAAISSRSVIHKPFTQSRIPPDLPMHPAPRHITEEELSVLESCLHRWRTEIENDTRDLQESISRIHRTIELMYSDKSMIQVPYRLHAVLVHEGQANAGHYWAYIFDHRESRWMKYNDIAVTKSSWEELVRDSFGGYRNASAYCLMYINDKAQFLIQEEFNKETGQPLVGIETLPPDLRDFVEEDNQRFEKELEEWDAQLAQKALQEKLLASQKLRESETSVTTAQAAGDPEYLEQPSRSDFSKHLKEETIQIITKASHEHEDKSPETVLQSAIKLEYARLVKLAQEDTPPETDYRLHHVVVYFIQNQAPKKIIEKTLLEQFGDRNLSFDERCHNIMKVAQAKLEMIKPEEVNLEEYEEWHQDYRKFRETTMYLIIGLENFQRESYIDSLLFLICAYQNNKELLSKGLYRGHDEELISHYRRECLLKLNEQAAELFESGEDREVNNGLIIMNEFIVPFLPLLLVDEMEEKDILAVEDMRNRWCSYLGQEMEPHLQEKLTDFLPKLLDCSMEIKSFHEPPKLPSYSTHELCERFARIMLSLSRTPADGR
Test: Ubiquitin-Rhodamine 110 Assay for USP25 Activity, Example A-3
Type: biochemical
Settings: biochemical IC50 range, Ubiquitin-Rhodamine 110 assay, Example A-3; read-out: USP25 A-3
pIC50: −log10 of the molar value.
Examples of molecules with documented pIC50 follow.

INSERT INTO assay_data (molecule, test_system, observed_measurement) VALUES
  ('Cc1ccc2c(N)c(C(=O)N[C@H]3COc4cc(N5C[C@H](N)[C@](C)(CF)C5)ccc4C3)sc2n1', 'USP25 (USP25-His6, Boston Biochem E-546) (Homo sapiens, UniProt Q9UHP3)', '6.70 to 7.30');

Retrieve pIC50 measured for CO[C@H]1CN(c2ccc3c(c2)CC[C@H](NC(=O)c2sc4nc(C)ccc4c2N)C3)C[C@H]1N and print it. 5.70 to 6.70

Retrieve pIC50 measured for Cc1ccc2c(N)c(C(=O)N[C@H]3COc4cc(N5C[C@@H](N)[C@](C)(CF)C5)ccc4C3)sc2n1 and print it. 6.70 to 7.30

Retrieve pIC50 measured for Cc1ccc2c(N)c(C(=O)N[C@H]3COc4cc(N5CCNCC5)cc(F)c4C3)oc2n1 and print it. < 5.70

Retrieve pIC50 measured for O=C(N[C@H]1COc2cc(N3CCNCC3)ccc2C1)c1ccc(NCc2ccc(Cl)cc2Cl)nc1 and print it. 7.30 to 9.00

Retrieve pIC50 measured for Cc1ccc2c(N)c(C(=O)N[C@H]3COc4cc(N5C[C@H](N)[C@@](C)(CF)C5)ccc4C3)sc2n1 and print it. 6.70 to 7.30

Retrieve pIC50 measured for Cc1ccc2c(N)c(C(=O)N[C@H]3COc4cc(N5C[C@@H]6CCNC[C@@H]65)cc(F)c4C3)sc2n1 and print it. 6.70 to 7.30

Retrieve pIC50 measured for CN[C@@H]1CN(c2ccc3c(c2)OC[C@H](NC(=O)c2sc4nc(C)ccc4c2N)C3)C[C@H]1CF and print it. 6.70 to 7.30

Retrieve pIC50 measured for Cc1ccc2c(N)c(C(=O)N[C@H]3CCc4cc(N5C[C@H](CF)[C@H](N)C5)ccc4C3)sc2n1 and print it. 5.70 to 6.70

Retrieve pIC50 measured for Cc1ccc2c(N)c(C(=O)N[C@H]3CCc4c(F)c(N5CC6CCC(C5)N6)cc(F)c4C3)sc2n1 (single isomer, unassigned) and print it. 7.30 to 9.00

Retrieve pIC50 measured for CO[C@@H]1CN(c2ccc3c(c2)OC[C@H](NC(=O)c2sc4nc(C)cnc4c2N)C3)C[C@@H]1N and print it. 5.70 to 6.70

Retrieve pIC50 measured for O=C(N[C@H]1COc2cc(N3CCNCC3)ccc2C1)c1ccc(NCc2cccc(Cl)c2Cl)nc1 and print it. 7.30 to 9.00

Retrieve pIC50 measured for CN[C@H]1CN(c2ccc3c(c2)OC[C@H](NC(=O)c2sc4nc(C)ccc4c2N)C3)C[C@@H]1CF and print it. 7.30 to 9.00

====

Target: USP25 (USP25-His6, Boston Biochem E-546) (Homo sapiens, UniProt Q9UHP3)
Construct: His6 (C); purchased Boston Biochem E-546
Sequence (Q9UHP3 1-1055): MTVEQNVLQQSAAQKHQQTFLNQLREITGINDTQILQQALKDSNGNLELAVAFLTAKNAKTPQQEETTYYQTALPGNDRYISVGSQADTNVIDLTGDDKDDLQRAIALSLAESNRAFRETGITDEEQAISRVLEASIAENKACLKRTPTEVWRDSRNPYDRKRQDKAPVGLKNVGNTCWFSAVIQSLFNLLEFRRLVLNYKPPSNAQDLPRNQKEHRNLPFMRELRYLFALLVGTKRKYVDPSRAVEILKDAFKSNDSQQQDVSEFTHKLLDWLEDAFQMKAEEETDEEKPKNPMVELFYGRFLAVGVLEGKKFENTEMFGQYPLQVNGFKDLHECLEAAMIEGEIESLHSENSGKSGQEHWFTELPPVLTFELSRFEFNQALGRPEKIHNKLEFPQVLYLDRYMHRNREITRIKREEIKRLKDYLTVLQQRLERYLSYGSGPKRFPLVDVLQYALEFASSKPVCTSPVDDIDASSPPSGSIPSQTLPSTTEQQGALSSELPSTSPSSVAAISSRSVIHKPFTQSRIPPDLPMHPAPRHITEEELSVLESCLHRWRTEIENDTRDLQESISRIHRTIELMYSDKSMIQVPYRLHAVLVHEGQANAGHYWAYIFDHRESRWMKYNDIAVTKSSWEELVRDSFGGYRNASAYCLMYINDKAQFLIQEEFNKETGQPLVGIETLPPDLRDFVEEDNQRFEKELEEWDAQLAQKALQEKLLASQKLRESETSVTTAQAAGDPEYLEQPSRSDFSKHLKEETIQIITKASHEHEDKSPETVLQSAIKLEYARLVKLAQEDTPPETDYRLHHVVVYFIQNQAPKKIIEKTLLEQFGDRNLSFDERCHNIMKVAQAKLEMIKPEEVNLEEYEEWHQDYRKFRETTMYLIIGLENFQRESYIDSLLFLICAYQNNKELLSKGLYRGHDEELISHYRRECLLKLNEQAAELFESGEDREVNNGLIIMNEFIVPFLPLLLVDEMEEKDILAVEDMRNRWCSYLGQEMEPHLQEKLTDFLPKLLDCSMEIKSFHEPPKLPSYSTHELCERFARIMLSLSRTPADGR
Assay: Ubiquitin-Rhodamine 110 Assay for USP25 Activity, Example A-3
Assay type: biochemical
Settings: Ubiquitin-Rhodamine 110 assay, Example A-3; read-out: USP25 A-3 IC50 range
Examples of compounds with documented IC50 follow.

Retrieve IC50 measured for CO[C@H]1CN(c2cc(F)c3c(c2C#N)CC[C@H](NC(=O)c2sc4nc(C)ccc4c2N)C3)C[C@@H]1N (single isomer, unassigned) [Example 14-23] and print it. 200 to 2000 nM

Retrieve IC50 measured for COC[C@@]1(N)CCN(c2ccc3c(n2)CC[C@H](NC(=O)c2sc4nc(C)ccc4c2N)C3)C1 [Example 388] and print it. 200 to 2000 nM

Retrieve IC50 measured for CCn1ccc2cc(C(=O)N[C@H]3CCc4nc(N5C[C@@H](COC)[C@@H](N)C5)ccc4C3)cnc21 (single isomer, unassigned) [Example 400] and print it. > 2000 nM

Retrieve IC50 measured for Cc1cnc2c(N)c(C(=O)N[C@H]3CCc4cc(N5CC(C(=O)O)C5)ccc4C3)sc2n1 [Example 6-4] and print it. 200 to 2000 nM

Retrieve IC50 measured for CN[C@@H]1CN(c2ccc3c(n2)CC[C@H](NC(=O)c2sc4nc(C)ccc4c2N)C3)C[C@H]1C(F)F [Example 377] and print it. > 2000 nM

Retrieve IC50 measured for Cc1ccc2c(N)c(C(=O)N[C@H]3CCc4cc(N5CCNCC5)ccc4C3)sc2n1 (single isomer, unassigned) [Example 11-21] and print it. > 2000 nM
